assay: Aqueous solubility of the compound; assay type: physicochemical; details: buffer; read-out: solubility
Endpoint Name: solubility

# Structure Notation, Result
measured = [
    ("Cc1c2c(n3c1CCCN1CC[C@@H](C1)Nc1cc-3ccc1C(N)=O)CC(C)(C)CC2=O", "49 µg/mL"),
    ("Cc1c2c(n3c1CCCN1CCNC[C@H]1CNc1cc-3ccc1C(N)=O)CC(C)(C)CC2=O", "> 100 µg/mL"),
    ("Cc1c2c(n3c1CCCNC(=O)[C@H](C)Nc1cc-3ccc1C(N)=O)CC(C)(C)CC2=O", "> 100 µg/mL"),
    ("CC(=O)N1CCN2CCCc3c(C)c4c(n3-c3ccc(C(N)=O)c(c3)NC[C@H]2C1)CC(C)(C)CC4=O", "> 100 µg/mL"),
]

* * *

molecular target: CYP2D6 (Homo sapiens); assay: Inhibition of CYP2D6 at 3 uM; type: ADME
Sequence (P10635 whole entry): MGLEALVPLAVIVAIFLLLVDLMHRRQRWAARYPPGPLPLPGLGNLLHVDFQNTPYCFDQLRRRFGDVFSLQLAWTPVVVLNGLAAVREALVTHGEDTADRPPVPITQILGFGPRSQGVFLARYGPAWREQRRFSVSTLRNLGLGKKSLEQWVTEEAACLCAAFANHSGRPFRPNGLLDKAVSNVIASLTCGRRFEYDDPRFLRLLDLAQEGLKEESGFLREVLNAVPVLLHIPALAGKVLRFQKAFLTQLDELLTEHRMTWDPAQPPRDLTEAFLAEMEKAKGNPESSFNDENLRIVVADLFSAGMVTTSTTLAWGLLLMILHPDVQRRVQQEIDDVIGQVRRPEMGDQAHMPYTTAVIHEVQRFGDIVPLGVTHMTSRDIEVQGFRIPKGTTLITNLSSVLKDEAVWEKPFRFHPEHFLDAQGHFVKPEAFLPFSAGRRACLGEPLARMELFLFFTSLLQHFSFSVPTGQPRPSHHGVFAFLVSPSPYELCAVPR
Record MET whenever inhibition at 3 µM is at 5% or higher; record NOT MET when lower.

# Structure Notation, Class Label
data = [
    ("Cc1c2c(n3c1CCCN1CCC[C@@H](C1)Nc1cc-3ccc1C(N)=O)CC(C)(C)CC2=O", "MET"),
    ("Cc1c2c(n3c1CCCN1CC[C@H](CNc4cc-3ccc4C(N)=O)C1)CC(C)(C)CC2=O", "NOT MET"),
    ("Cc1c2c(n3c1CCCN1CC[C@@H](C1)Nc1cc-3ccc1C(N)=O)CC(C)(C)CC2=O", "MET"),
    ("Cc1c2c(n3c1CCCN1CCCC[C@@H]1[C@H](C)Nc1cc-3ccc1C(N)=O)CC(C)(C)CC2=O", "NOT MET"),
    ("Cc1c2c(n3c1CCCN1C[C@@H](F)C[C@@H]1CNc1cc-3ccc1C(N)=O)CC(C)(C)CC2=O", "MET"),
    ("Cc1c2c(n3c1CCCN1CCCC[C@@H]1CNc1cc-3ccc1C(N)=O)CC(C)(C)CC2=O", "MET"),
]
